Target: Feline_OSMR_hlgG1_Fc (feline)
Sequence (chain, as listed by the source limits assumed, form in doubt): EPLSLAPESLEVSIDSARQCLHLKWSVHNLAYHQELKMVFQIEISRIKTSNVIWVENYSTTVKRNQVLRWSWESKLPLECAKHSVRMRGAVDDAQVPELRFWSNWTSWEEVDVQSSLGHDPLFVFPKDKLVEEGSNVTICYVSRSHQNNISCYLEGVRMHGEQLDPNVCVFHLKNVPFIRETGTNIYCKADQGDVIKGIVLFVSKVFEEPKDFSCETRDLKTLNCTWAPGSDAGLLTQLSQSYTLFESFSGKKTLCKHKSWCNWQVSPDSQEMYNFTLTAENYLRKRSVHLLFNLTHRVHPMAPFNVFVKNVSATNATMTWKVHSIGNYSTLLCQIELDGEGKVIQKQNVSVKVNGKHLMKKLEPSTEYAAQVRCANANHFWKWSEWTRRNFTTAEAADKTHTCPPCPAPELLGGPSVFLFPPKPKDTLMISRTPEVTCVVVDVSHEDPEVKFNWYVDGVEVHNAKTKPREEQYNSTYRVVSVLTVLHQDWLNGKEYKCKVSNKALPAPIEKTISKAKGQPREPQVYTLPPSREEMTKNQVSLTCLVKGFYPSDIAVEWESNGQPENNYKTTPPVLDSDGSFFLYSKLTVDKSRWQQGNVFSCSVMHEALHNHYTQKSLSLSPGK
Assay: SPR Biacore
Each record here notes measured Kd.
REPORTED PROPERTY: Kd (nM)

- BINDER: "Mu_02D09_VH (SEQ ID NO: 31)_D102A (antibody, V domains shown) VH: EVQLVESGGGLVKPGGSLTLSCAASGFTFSDYGMHWLRQAPEKGLEWVAYISSGSRAVFFADTVKGRFTISRDNAKNTLFLQMTSLRSDDTAMYYCARDRYAGRGFAYWGQGTLVTVSA VL: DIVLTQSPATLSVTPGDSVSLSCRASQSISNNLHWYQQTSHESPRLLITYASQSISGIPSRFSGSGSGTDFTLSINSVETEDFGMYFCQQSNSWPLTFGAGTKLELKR"
  QUANTITATIVE RESULT: 13.9
- BINDER: "Mu_09E09_VH (SEQ ID NO: 35)_P100A (antibody, V domains shown) VH: DVKLVESGEGLVKPGGSLKLSCAASGFTFSSYAMSWVRQTPEKRLEWVAYISSGGDYIYYADTVKGRFTISRDNARNTLYLQMSSLKSEDTAMYYCTRDAITGTFAYWGQGTLVTVSA VL: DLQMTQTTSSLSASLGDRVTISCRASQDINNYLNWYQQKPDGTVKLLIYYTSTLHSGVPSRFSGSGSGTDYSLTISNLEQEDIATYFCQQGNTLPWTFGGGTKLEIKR"
  QUANTITATIVE RESULT: 1.27
- BINDER: "Mu_10F07_VH (SEQ ID NO: 39)_D99A (antibody, V domains shown) VH: DVKLVESGEGLVKPGGSLKLSCAASGFTFSSYAMSWVRQTPEKRLEWVTYISSGGDYFYYADTVKGRFTISRDNARNTLYLQMSSLKSEDTAMYYCTRAPITGTFAYWGQGTLVTVSA VL: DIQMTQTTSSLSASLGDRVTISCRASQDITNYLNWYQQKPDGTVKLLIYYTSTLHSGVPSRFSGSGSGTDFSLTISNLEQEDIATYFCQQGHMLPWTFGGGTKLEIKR"
  QUANTITATIVE RESULT: 3.18
